B1: ZMYND11 (parent)
chain: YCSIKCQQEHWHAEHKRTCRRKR

Variants of: B1
protocol.notes: protein stability index of a GFP-peptide fusion (GPS, HEK-293T) (PSI 1-6); higher = more stable;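 further: lentivirally expressed fusions sorted by FACS into six bins by GFP to DsRed ratio, PSI derived from sequencing read proportions per bin multiplied by bin number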
conditions: c terminus: native
Catalogue of variants with associated protein stability index
measured.endpoint: protein stability index

seq	observed.value
YCSCKCQQEHWHAEHKRTCRRKR [I4C]	2.67
YCSIKCQQEHWHAEHKRTCRRCR [K22C]	2.6
YCSIKCQQENWHAEHKRTCRRKR [H10N]	3.26
YCSYKCQQEHWHAEHKRTCRRKR [I4Y]	3.92
YCSIKCQQEHWHTEHKRTCRRKR [A13T]	1.98
YCSIKCQQEHWHAEHKRTVRRKR [C19V]	2.48
YCSIKCQQEHWLAEHKRTCRRKR [H12L]	2.53
YCSIKQQQEHWHAEHKRTCRRKR [C6Q]	1.59
YCSIKCQQEHWHNEHKRTCRRKR [A13N]	2.78
YCSHKCQQEHWHAEHKRTCRRKR [I4H]	2.62
YCSIKCQQEHWHAEHKRTCDRKR [R20D]	1.76
YCSIKCQQEHWHALHKRTCRRKR [E14L]	1.87
YCSIKCQQEHWHAEHKRTCRRDR [K22D]	1.85
YCSIKCQQEHWTAEHKRTCRRKR [H12T]	2.33
YCSIKCQQSHWHAEHKRTCRRKR [E9S]	1.68
YCSIKCQQEHWDAEHKRTCRRKR [H12D]	2.82
YCSIKCQQEHWHAEHKPTCRRKR [R17P]	2.89
YCSIKCQQEHWHAEHMRTCRRKR [K16M]	2.16
YCSIKDQQEHWHAEHKRTCRRKR [C6D]	2.69
YCSIKCQFEHWHAEHKRTCRRKR [Q8F]	2.84
YCSIKCQQEHSHAEHKRTCRRKR [W11S]	3.2
YCSIKCQQEHWHVEHKRTCRRKR [A13V]	2.89
YCSIKCQQEHWIAEHKRTCRRKR [H12I]	1.59
YCSIKCQQEHWHAEHKRTCRYKR [R21Y]	2.2
YCMIKCQQEHWHAEHKRTCRRKR [S3M]	2.19
YCSIKCQQEHHHAEHKRTCRRKR [W11H]	3.45
YCSIKCKQEHWHAEHKRTCRRKR [Q7K]	3.05
YYSIKCQQEHWHAEHKRTCRRKR [C2Y]	2.85
YCSIKCQQEHWHAEHKLTCRRKR [R17L]	2.25
YHSIKCQQEHWHAEHKRTCRRKR [C2H]	1.54
GCSIKCQQEHWHAEHKRTCRRKR [Y1G]	3.74
YCSIKCQQEHWHAECKRTCRRKR [H15C]	2.38
YVSIKCQQEHWHAEHKRTCRRKR [C2V]	1.45
YCSIKCQQEHWHAEHKRTCRRKL [R23L]	2.2
YCSIKCQQEIWHAEHKRTCRRKR [H10I]	1.92
YCSIKCQYEHWHAEHKRTCRRKR [Q8Y]	2.08
YCSIKCQQEHWHAEHHRTCRRKR [K16H]	2.84
YCSIKCQQEHWHAEGKRTCRRKR [H15G]	2.44

Reference for the values: the supplement of paper PMC10567573
